Property: Te % (SEM) 4 h; scope: individual molecules
- Tested on: HBMEC monolayer
- CONDITIONS_USED: human, 4 h, 30 µg/mL

MOLECULE | TARGET_OR_TEST_SYSTEM | Te % (SEM) 4 h
O=C(O)c1cc(O)c(O)c(O)c1 [Gallic acid] | HBMEC monolayer | 62.9 (0.3)/67.9(1.3) %
O=C(O)[C@]1(O)C[C@@H](O)[C@@H](O)[C@H](O)C1 [Quinic acid] | HBMEC monolayer | 52.5 (1.4) %
O=C(O)/C=C/c1ccc(O)c(O)c1 [Caffeic acid] | HBMEC monolayer | 50.1 (3.4) %
O=c1c(O[C@@H]2O[C@H](CO)[C@@H](O)[C@H](O)[C@H]2O)c(-c2ccc(O)c(O)c2)oc2cc(O)cc(O)c12 [Isoquercitrin] | HBMEC monolayer | 16.3 (1.3) %

---

Property: Te % (SEM) 4 h; scope: individual compounds
- Test system: HBMEC monolayer
- CONDITIONS_USED: human, 4 h, 24 µg/mL

CHEMICAL_STRUCTURE | TARGET_OR_TEST_SYSTEM | Te % (SEM) 4 h
O=C(/C=C/c1ccc(O)c(O)c1)O[C@@H](C(=O)O)[C@@H](O)C(=O)O | HBMEC monolayer | 87.6 (3.5) %
O=c1c(O)c(-c2ccc(O)cc2)oc2cc(O)cc(O)c12 | HBMEC monolayer | 36.5 (2.2) %
COc1ccc([C@@H]2CC(=O)c3c(O)cc(O)cc3O2)cc1O | HBMEC monolayer | 67.2 (3.6) %
O=C(O)/C=C/c1ccc(O)c(O)c1 | HBMEC monolayer | 68.3(0.3) %
O=c1oc2c(O)c(O)cc3c(=O)oc4c(O)c(O)cc1c4c23 | HBMEC monolayer | 85.5 (2.5) %
Oc1cccc(O)c1O | HBMEC monolayer | 80.5 (1.1) %

---

- System: HBMEC monolayer
- CONDITIONS_USED: human
Property: Te % (SEM) 2 h; scope: individual compounds
QUANTITY_MEASURED: Te % (SEM) 2 h

COMPOUND | EXPERIMENTAL_RESULT
CC[C@H](/C=C/[C@@H](C)[C@H]1CC[C@H]2[C@@H]3CC=C4C[C@@H](O)CC[C@]4(C)[C@H]3CC[C@]12C)C(C)C [Stigmasterol] | 40.4 (2.2) %
C[C@H]1[C@H](C)CC[C@]2(CO)CC[C@]3(C)C(=CC[C@@H]4[C@@]5(C)CC[C@H](O)C(C)(C)[C@@H]5CC[C@]43C)[C@H]12 (single isomer, unassigned) [Uvaol Isomer I, Uvaol] | 3.3 (0.1) %
C=C(C)[C@@H]1CCC2=CC(=O)C[C@@H](C)[C@]2(C)C1 [Nootkatone] | 29.9 (0.9) %
O=C(/C=C/c1ccc(O)c(O)c1)O[C@H](Cc1ccc(O)c(O)c1)C(=O)O [Rosmarinic acid] | 41.0 (2.3) %
CC(C)[C@H](C)CC[C@@H](C)[C@H]1CC[C@H]2[C@@H]3CC=C4C[C@@H](O)CC[C@]4(C)[C@H]3CC[C@]12C [Campesterol] | 68.7 (2.2) %
CC(C)=CCC/C(C)=C\CO [Nerol] | 26.8 (0.2) %
COc1cc(C=O)cc(OC)c1O [Syringaldehyde] | 22.7 (1.5)/33.4 (2.2) %
